Entry source: patent US20260372303A1

Exercise: state measured Disease Severity Intensity for each of the molecules provided.
# System: Zymoseptoria tritici strain Zt 38-02
# protocolDetails: In planta preventive efficacy on wheat cv. Alixan against Zymoseptoria tritici strain Zt 38-02
# Type: in vivo
# testSettings: 15 dpi; % of length of 2nd leaf blade; preventive 24 h; rate N/2.5 (g a.i./ha): ADF-16 40, penthiopyrad 80, metconazole 36, tebuconazole 100; control 36.0

Summary: `Cc1ccc(S(=O)(=O)n2cc(F)c(=N)n(C)c2=O)cc1` , Zymoseptoria tritici strain Zt 38-02, Disease Severity Intensity = 0.0 +/− 0.0b %

Per the reported Zymoseptoria tritici strain Zt 38-02 data, CC(C)(C)C(O)(CCc1ccc(Cl)cc1)Cn1cncn1 (stereo not shown) has Disease Severity Intensity of 0.0 +/− 0.0b %

Observed Disease Severity Intensity, Zymoseptoria tritici strain Zt 38-02, CC1(C)CCC(Cc2ccc(Cl)cc2)C1(O)Cn1cncn1 (stereo not shown) : 1.7 +/− 0.9b %

Zymoseptoria tritici strain Zt 38-02 assay, molecule CC(C)CC(C)c1sccc1NC(=O)c1cn(C)nc1C(F)(F)F (stereo not shown) , recorded Disease Severity Intensity = 0.0 +/− 0.0b %

----------
# System: Zymoseptoria tritici strain Zt 61
# protocolDetails: In planta preventive efficacy on wheat cv. Alixan against Zymoseptoria tritici strain Zt 61
# Format: in vivo
# testSettings: 28 dpi; % of length of 2nd leaf blade; preventive 24 h; rate N/2.5 (g a.i./ha): ADF-16 40, penthiopyrad 80, metconazole 36, tebuconazole 100; control 88.1
For each record, write down the corresponding Disease Severity Intensity.

Field Disease Severity Intensity (entry CC(C)(C)C(O)(CCc1ccc(Cl)cc1)Cn1cncn1 (stereo not shown) ) reads 54.3 +/− 6.2c %

Reported Disease Severity Intensity of `Cc1ccc(S(=O)(=O)n2cc(F)c(=N)n(C)c2=O)cc1` : 14.8 +/− 4.0e %

# Disease Severity Intensity (compound: CC1(C)CCC(Cc2ccc(Cl)cc2)C1(O)Cn1cncn1 (stereo not shown) ) is 65.6 +/− 4.2bc %

The recorded Disease Severity Intensity for entry CC(C)CC(C)c1sccc1NC(=O)c1cn(C)nc1C(F)(F)F (stereo not shown) equals 74.3 +/− 2.3b %

----------
# Tested on: Zymoseptoria tritici strain Zt 99
# protocolDetails: In planta preventive efficacy on wheat cv. Alixan against Zymoseptoria tritici strain Zt 99
# Assay type: in vivo
# testSettings: rate N (g a.i./ha): ADF-16 100, penthiopyrad 200, metconazole 90, tebuconazole 250
reportedMetric: Efficacy (from AUDPC, percentage of the untreated control) (%)
# output: bare number, implied unit %

The reported value for `Cc1ccc(S(=O)(=O)n2cc(F)c(=N)n(C)c2=O)cc1` in terms of Efficacy (from AUDPC, percentage of the untreated control) is 99.9

Form: compound = CC1(C)CCC(Cc2ccc(Cl)cc2)C1(O)Cn1cncn1 (stereo not shown) ; Efficacy (from AUDPC, percentage of the untreated control) = 69.0

Memo: CC(C)CC(C)c1sccc1NC(=O)c1cn(C)nc1C(F)(F)F (stereo not shown) , reported Efficacy (from AUDPC, percentage of the untreated control): 32.9

What the record says about CC(C)(C)C(O)(CCc1ccc(Cl)cc1)Cn1cncn1 (stereo not shown) : Efficacy (from AUDPC, percentage of the untreated control) is 96.0

----------
# Tested on: Zymoseptoria tritici strain Zt 61
# protocolDetails: In planta preventive efficacy on wheat cv. Alixan against Zymoseptoria tritici strain Zt 61
# Type: in vivo
# testSettings: 28 dpi; % of length of 2nd leaf blade; preventive 24 h; rate N (g a.i./ha): ADF-16 100, penthiopyrad 200, metconazole 90, tebuconazole 250; control 88.1
reportedMetric: Disease Severity Intensity

Lookup result for CC(C)CC(C)c1sccc1NC(=O)c1cn(C)nc1C(F)(F)F (stereo not shown) ; measured Disease Severity Intensity: 18.2 +/− 2.8e %

get_value(item= `Cc1ccc(S(=O)(=O)n2cc(F)c(=N)n(C)c2=O)cc1` , readout=Disease Severity Intensity) returns 1.5 +/− 0.3g %

So for CC(C)(C)C(O)(CCc1ccc(Cl)cc1)Cn1cncn1 (stereo not shown) , the logged Disease Severity Intensity turned out to be 30.7 +/− 5.3d %

Noted for CC1(C)CCC(Cc2ccc(Cl)cc2)C1(O)Cn1cncn1 (stereo not shown) : its Disease Severity Intensity reads 35.1 +/− 3.8d %
